assay: ATG_M_19_CIS: Attagene CIS-FACTORIAL HepG2 Assay for M19 Transcription Factor (Internal Marker) (AID 2282939); conditions: HepG2 Attagene CIS-FACTORIAL M19 internal marker reporter; actives raise or lower the signal
Calls of active or inactive are those of the source. How the source made its calls: active means hit-call score of the fitted dose curve at least 0.9, where 1 is the maximum; inactive means score below 0.9.
quantity measured: outcome

The recorded outcome for CCCCCCC1(C)CCC(=O)O1 (stereo not drawn) is inactive

For reference, reported outcome for `CCN(CC#N)c1cccc(C)c1` stands at inactive

Looking up O=C(OCC1CCC2OC2C1)C1CCC2OC2C1 (stereo not drawn) , I found its outcome recorded as inactive

Field outcome (entry `Cc1cc(C)c(C)cc1C` ) reads inactive

The molecule listed as `CCN(CCO)c1cccc(C)c1` shows outcome equal to inactive

Others:
Sure, the documented outcome for `CCOC(=O)[C@H](C)O` is inactive

Recorded result, `Cc1cc(C)c(C)c(O)c1` , outcome: inactive

Entry `O=C1CCCC(=O)O1` , outcome reported as inactive
